Attribution: PubChem BioAssay AID248

- System: L1210 leukemia ip in BDF1 mice, survival T/C
- Measurement Notes: NCI In Vivo Anticancer Drug Screen. Data for tumor model L1210 Leukemia (intraperitoneal) in B6D2F1 (BDF1) mice
- Test Context: endpoint: mean survival time; dose: 400.0 mg/kg/injection; schedule: Q01DX009 (ip); vehicle: saline; higher = longer survival
Inconclusive results and toxic doses are left out.
# Lookup of reported T/C keyed by entry

Sample answers from the record:
O=C(O)C(O)COc1ccc(Cl)cc1Cl (stereo unspecified) ... 102 % of control
O=C(/C=C\c1ccc(O)c(O)c1)OC1C(O)CC(OC(=O)/C=C/c2ccc(O)c(O)c2)(C(=O)O)CC1O (stereo unspecified) ... 94 % of control
CCCC(C)OS(=O)(=O)c1ccc(C)cc1 (stereo unspecified) ... 102 % of control
NNC(=O)CO ... 114 % of control
COC(=O)CCC#N ... 102 % of control

Case `CCCCCCCCCCN1C(=O)c2ccccc2S1(=O)=O` , L1210 leukemia ip in BDF1 mice, survival T/C, T/C recorded as 97 % of control

Case `Nc1nc(N)c(-c2ccc(Cl)c(Cl)c2)c(COc2cccc(CNC(=O)c3cccc(S(=O)(=O)F)c3)c2)n1` , L1210 leukemia ip in BDF1 mice, survival T/C, T/C recorded as 105 % of control

Case OC(c1ccccc1)(c1ccccc1)C1CCCCC1=C(c1ccccc1)c1ccccc1 (stereo unspecified) , L1210 leukemia ip in BDF1 mice, survival T/C, T/C recorded as 86 % of control

Case CC(=O)NC1CCCC(O)C1 (stereo unspecified) , L1210 leukemia ip in BDF1 mice, survival T/C, T/C recorded as 92 % of control

Case `COC(=O)C(C)(OC)OC` , L1210 leukemia ip in BDF1 mice, survival T/C, T/C recorded as 105 % of control

Case `CCOC(=O)N(Cc1ccccc1)C1CC1` , L1210 leukemia ip in BDF1 mice, survival T/C, T/C recorded as 103 % of control

Case `CCOC(=O)CNC(N)=O` , L1210 leukemia ip in BDF1 mice, survival T/C, T/C recorded as 96 % of control

Case `O=C(Nc1ccc(Cl)c(Cl)c1)OCC#CCOC(=O)Nc1ccc(Cl)c(Cl)c1` , L1210 leukemia ip in BDF1 mice, survival T/C, T/C recorded as 88 % of control

Case `CC(=O)CC(=O)OCc1ccccc1` , L1210 leukemia ip in BDF1 mice, survival T/C, T/C recorded as 95 % of control

Case `CC1=Nc2ccc([N+](=O)[O-])cc2N=C(C)C1` , L1210 leukemia ip in BDF1 mice, survival T/C, T/C recorded as 92 % of control

Case `Nc1c(S(=O)(=O)O)cc(Br)c2c1C(=O)c1ccccc1C2=O` , L1210 leukemia ip in BDF1 mice, survival T/C, T/C recorded as 101 % of control

Case CCOC(=O)C1(O)c2ccccc2NC(=S)N1CC(Br)CBr (stereo unspecified) , L1210 leukemia ip in BDF1 mice, survival T/C, T/C recorded as 102 % of control

Case `CCCCOCCCO` , L1210 leukemia ip in BDF1 mice, survival T/C, T/C recorded as 95 % of control

Case `N#CCCNCCC#N` , L1210 leukemia ip in BDF1 mice, survival T/C, T/C recorded as 104 % of control

Case NC(=O)CC(N)c1nn[nH]n1 (stereo unspecified) , L1210 leukemia ip in BDF1 mice, survival T/C, T/C recorded as 102 % of control

Case `CC(C)(C)S(=O)(=O)CCS(=O)(=O)C(C)(C)C` , L1210 leukemia ip in BDF1 mice, survival T/C, T/C recorded as 107 % of control
